Reported normalized growth by item:
- test.name: chemical genetic growth profiling, strain panel (AID 1159580);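 further: tested at 20 µM; growth read once vehicle control cultures reached saturation at 30 °C; 1 = growth at the plate median or of vehicle wells; lower values mean less growth of the strain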
- condition.parameters: S. cerevisiae deletion strains, growth OD, locus YLR371W, strain rom2, stronger effect = lower value
The whole screen tested about 5,500 compounds, of which about 2,000 (36%) were called active. Roughly 18% stayed inconclusive and do not appear here. The list shows a part of the results.
Give your answer as a number; write no unit.

Recorded results for 6 molecules are shown here.
| molecule | normalized growth |
| --- | --- |
| Oc1cc(O)c2c(c1)O[C@H](c1cc(O)c(O)c(O)c1)[C@H](O)C2 | 0.981 |
| CC(=O)S[C@@H]1CC2=CC(=O)CC[C@]2(C)[C@H]2CC[C@@]3(C)[C@@H](CC[C@@]34CCC(=O)O4)C12 (stereo partly drawn) | 1.03 |
| Oc1cc(O)c2c(c1)OC(c1cc(O)c(O)c(O)c1)C(O)C2c1c(O)cc(O)c2c1OC(c1cc(O)c(O)c(O)c1)C(O)C2c1c(O)cc(O)c2c1OC(c1cc(O)c(O)c(O)c1)C(O)C2 (stereo not drawn) | 0.91 |
| CCN(CC)Cc1ccc(Nc2ccnc3cc(Cl)ccc23)cc1O | 1 |
| Clc1ccc(C(c2ccc(Cl)cc2)C(Cl)(Cl)Cl)cc1 | 0.995 |
| Cc1ccc(S(=O)(=O)NC(=O)NN2CCCCCC2)cc1 | 0.977 |

Q) Respond only with normalized growth recorded for "COC(=O)/C=C/C(C)=C/C=C/C(C)=C/C=C/C=C(C)/C=C/C=C(C)/C=C/C(=O)O"
A) 0.988

Q) Respond only with normalized growth recorded for "O=C1c2ccc(O)cc2O[C@H](c2cc(O)c(O)c(O)c2)[C@H]1O"
A) 0.992

Q) Respond only with normalized growth recorded for "N[C@@H](Cc1ccc(N(CCCl)CCCl)cc1)C(=O)O"
A) 0.978

Q) Respond only with normalized growth recorded for COc1ccc(C(CN(C)C)C2(O)CCCCC2)cc1 (stereo not drawn)
A) 0.985

Q) Respond only with normalized growth recorded for "C[n+]1c2cc(N)ccc2cc2ccc(N)cc21"
A) 0.908

Q) Respond only with normalized growth recorded for "COc1ccc(CN(CCN(C)C)c2ccccn2)cc1"
A) 0.972

Q) Respond only with normalized growth recorded for "Oc1cc(O)c2c(c1)O[C@H](c1ccc(O)c(O)c1)[C@@H](O)C2"
A) 1.01

Q) Respond only with normalized growth recorded for COc1cc2nc(N(C)CCCNC(=O)C3CCCO3)nc(N)c2cc1OC (stereo not drawn)
A) 1.02

---

- test.name: chemical genetic growth profiling, strain panel (AID 1159580);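 further: tested at 20 µM; growth read once vehicle control cultures reached saturation at 30 °C; 1 = growth at the plate median or of vehicle wells; lower values mean less growth of the strain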
- condition.parameters: S. cerevisiae deletion strains, growth OD, locus YER110C, stronger effect = lower value
Hit rate of the full screen: of about 5,500 compounds, about 2,000 (36%) were called active. About 18% were inconclusive and are not listed. This is one part of the list.
Rule: normalized growth below 1 gives criterion met, anything at or above gives criterion not met.

Examples from the recorded data:
| compound | label.value |
| --- | --- |
| Cn1c(=O)c2c(ncn2CC(O)CO)n(C)c1=O (stereo not given) | criterion met |
| C=C[C@@](C)(O)CCC1C(=C)C[C@H](O)C2C(C)(C)CCCC12C (stereo not given in full) | criterion not met |

Q) Determine if "C=CCc1ccc(O)c(OC)c1" shows normalized growth strictly lower than 1.
A) criterion met

Q) Determine if "CC[C@H]1OC(=O)[C@H](C)[C@@H](O[C@H]2C[C@@](C)(OC)[C@@H](O)[C@H](C)O2)[C@H](C)[C@@H](O[C@@H]2O[C@H](C)C[C@H](N(C)C)[C@H]2O)[C@](C)(OC)C[C@@H](C)C(=O)[C@H](C)[C@@H](O)[C@]1(C)O" shows normalized growth strictly lower than 1.
A) criterion not met

Data provenance is PubChem BioAssay AID1159580.
